- Tested on: Key Grass and Sedge Weeds as well as Grass Crops
- protocol notes: Post-Emergent Test II (Table 6)
- Type: in vivo
- measurement parameters: post-emergence, 336 h, DIGSA: crabgrass (Digitaria sanguinalis), 70 g ai/ha, 14 days after application, read-out: Visual Growth Reduction (%) 14 Days After Application DIGSA
recorded endpoint: pest or weed control at 70 g/ha

Example compounds with recorded pest or weed control at 70 g/ha:
compound	result
COC(=O)c1nc(-c2ccc(OC)nc2Cl)c(F)c(N)c1Cl [Compound 88]	0 to 29%
COC(=O)c1nc(-c2ccc(Cl)c(F)c2C(=O)O)cc(N)c1Cl [Compound 91]	0 to 29%
COC(=O)c1nc(-c2ccc(C(F)(F)F)nc2C)c(F)c(N)c1Cl [Compound 35]	0 to 29%
C=Cc1c(-c2cc(N)c(Cl)c(C(=O)OC)n2)ccc(Cl)c1F [Compound 79]	0 to 29%
COC(=O)c1nc(-c2ccc(F)nc2)c(F)c(N)c1Cl [Compound 23]	30 to 44%
Cc1c(-c2nc(C(=O)O)c(Cl)c(N)c2F)ccc(Cl)c1F [Compound 67]	0 to 29%
COC(=O)c1nc(-c2c(F)cc(Cl)c(F)c2C)cc(N)c1Cl [Compound 38]	0 to 29%
COC(=O)c1nc(-c2ccc(Cl)nc2OC)cc(N)c1Cl [Compound 48]	0 to 29%
COC(=O)c1nc(-c2ccc(C(F)(F)F)nc2)c(F)c(N)c1Cl [Compound 59]	75 to 84%
COC(=O)c1nc(-c2ccc(Cl)c(F)c2CO)cc(N)c1Cl [Compound 29]	0 to 29%

[Q] Recorded pest or weed control at 70 g/ha of COC(=O)c1nc(-c2ccc(Cl)c(F)c2C)c(Cl)c(N)c1Cl [Compound 3] , please.
[A] 0 to 29%

[Q] Recorded pest or weed control at 70 g/ha of CCc1c(-c2cc(N)c(Cl)c(C(=O)O)n2)ccc(Cl)c1F [Compound 86] , please.
[A] 0 to 29%

[Q] Recorded pest or weed control at 70 g/ha of COc1c(-c2cc(N)c(Cl)c(C(=O)O)n2)ccc(Cl)c1F [Compound 84] , please.
[A] 0 to 29%

[Q] Recorded pest or weed control at 70 g/ha of COC(=O)c1nc(-c2ccc(C(F)(F)F)nc2OC)cc(N)c1Cl [Compound 37] , please.
[A] 0 to 29%

[Q] Recorded pest or weed control at 70 g/ha of COC(=O)c1nc(-c2ccc(C(F)(F)F)nc2)cc(N)c1Cl [Compound 4] , please.
[A] 0 to 29%

[Q] Recorded pest or weed control at 70 g/ha of Nc1c(F)c(-c2ccc(C(F)F)nc2)nc(C(=O)O)c1Cl [Compound 27] , please.
[A] 75 to 84%

[Q] Recorded pest or weed control at 70 g/ha of COC(=O)c1nc(-c2ccc(Cl)c(F)c2C(F)F)cc(N)c1Cl [Compound 53] , please.
[A] 0 to 29%

[Q] Recorded pest or weed control at 70 g/ha of COC(=O)c1nc(-c2ccc(Cl)nc2Cl)cc(N)c1Cl [Compound 15] , please.
[A] 0 to 29%

[Q] Recorded pest or weed control at 70 g/ha of Nc1cc(-c2ccc(Cl)c(F)c2CF)nc(C(=O)O)c1Cl [Compound 80] , please.
[A] 0 to 29%
